# target_or_test_system: Porcine gastric H+/K+-ATPase (Sus scrofa)
# Construct: The gastric vesicles were collected from interface on 0.25 M sucrose layer containing 7% Ficoll
# assay_info: Ion-leaky porcine gastric H+/K+-ATPase inhibition
# experimental_conditions: ion-leaky vesicles, 5 mM KCl, pH 6.4, 37° C., 30 minutes
pIC50: −log10 of the molar value.
recorded_metric: pIC50

Would you please look over these solved cases?
- compound: "Cc1cccc2c1C(Nc1cc(C(=O)N(C)CCO)cn3c(C)c(C)nc13)CCO2 (racemic) [Example 5-1]"
  pIC50: 7.02
- compound: "Cc1nc2c(NC3CCOc4ccccc43)cc(C(=O)N(C)C)cn2c1C (single isomer, unassigned; (+)) [Example 1-3]"
  pIC50: 7.56

1: Cc1nc2c(NC3CCOc4cc(F)cc(F)c43)cc(C(=O)N(C)C)cn2c1C (racemic) [Example 8-1]
2: Cc1ccc2c(c1)OCCC2Nc1cc(C(=O)N(C)CCO)cn2c(C)c(C)nc12 (single isomer, unassigned) [Example 16-2]
Input line: Would you kindly point out which of 1 and 2 has the smaller pIC50 figure? Returns: label corresponding to the selected item.
Output line: 2

###

# target_or_test_system: Porcine gastric H+/K+-ATPase (Sus scrofa, UniProt P19156)
# Construct: The gastric vesicles were collected from interface on 0.25 M sucrose layer containing 7% Ficoll
# Sequence (P19156 2-1034 limits assumed): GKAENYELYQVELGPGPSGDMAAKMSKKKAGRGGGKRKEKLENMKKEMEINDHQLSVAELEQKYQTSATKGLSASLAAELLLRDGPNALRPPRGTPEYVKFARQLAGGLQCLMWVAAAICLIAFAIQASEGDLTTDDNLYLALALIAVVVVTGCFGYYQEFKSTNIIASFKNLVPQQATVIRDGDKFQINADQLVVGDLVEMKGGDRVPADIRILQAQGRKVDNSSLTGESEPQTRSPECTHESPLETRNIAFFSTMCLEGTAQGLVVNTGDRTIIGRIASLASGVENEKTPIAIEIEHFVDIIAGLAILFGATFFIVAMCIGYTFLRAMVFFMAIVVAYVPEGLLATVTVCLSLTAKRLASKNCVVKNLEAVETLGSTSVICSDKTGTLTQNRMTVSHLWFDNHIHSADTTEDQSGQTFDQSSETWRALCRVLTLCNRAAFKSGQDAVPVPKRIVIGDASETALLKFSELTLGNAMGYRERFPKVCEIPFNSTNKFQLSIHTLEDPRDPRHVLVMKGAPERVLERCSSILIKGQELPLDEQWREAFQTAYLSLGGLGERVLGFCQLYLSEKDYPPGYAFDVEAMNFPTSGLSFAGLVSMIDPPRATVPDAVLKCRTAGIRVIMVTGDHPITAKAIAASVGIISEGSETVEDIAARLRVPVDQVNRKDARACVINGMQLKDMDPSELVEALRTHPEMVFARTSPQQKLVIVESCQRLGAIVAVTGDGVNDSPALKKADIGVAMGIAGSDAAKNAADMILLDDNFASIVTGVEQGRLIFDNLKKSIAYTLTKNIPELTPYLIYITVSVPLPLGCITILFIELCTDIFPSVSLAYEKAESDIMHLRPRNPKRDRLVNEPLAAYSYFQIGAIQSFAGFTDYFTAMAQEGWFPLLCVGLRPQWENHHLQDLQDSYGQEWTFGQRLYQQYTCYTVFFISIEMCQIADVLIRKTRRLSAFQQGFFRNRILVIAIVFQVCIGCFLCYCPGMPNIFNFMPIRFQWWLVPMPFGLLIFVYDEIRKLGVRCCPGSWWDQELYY
# Sequence (P18434 whole entry partner): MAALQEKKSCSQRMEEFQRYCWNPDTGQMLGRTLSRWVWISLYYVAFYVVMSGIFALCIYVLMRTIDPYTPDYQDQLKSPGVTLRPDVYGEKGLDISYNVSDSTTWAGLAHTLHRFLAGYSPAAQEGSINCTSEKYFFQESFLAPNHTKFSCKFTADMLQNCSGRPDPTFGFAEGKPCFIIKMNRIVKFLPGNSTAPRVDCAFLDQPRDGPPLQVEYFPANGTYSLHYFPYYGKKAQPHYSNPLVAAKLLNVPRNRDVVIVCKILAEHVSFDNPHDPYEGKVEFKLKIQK
# assay_info: Ion-leaky porcine gastric H+/K+-ATPase inhibition
# experimental_conditions: ion-leaky vesicles, 5 mM KCl, pH 6.4, 37° C., 30 minutes
recorded_metric: IC50 (nM)

Would you please look over these solved cases?
- molecule: "Cc1nc2c(NC3CCOc4c(F)cccc43)cc(C(=O)N(C)C)cn2c1C (single isomer, unassigned) [Example 14-3]"
  result_unit: "nM"
  numeric_result: 170
- molecule: "Cc1nc2c(NC3CCOc4cc(F)cc(F)c43)cc(C(=O)N(C)CCO)cn2c1C (single isomer, unassigned) [Example 9-2]"
  result_unit: "nM"
  numeric_result: 15.9

a: Cc1nc2c(NC3CCOc4ccc(F)cc43)cc(C(=O)N(C)CCO)cn2c1C (racemic) [Example 13-1]
b: Cc1nc2c(NC3CCOc4cccc(F)c43)cc(C(=O)N(C)CCO)cn2c1C (racemic) [Example 11-1]
Input line: Given the listed records, identify the one among a and b with higher IC50. Returns: label corresponding to the selected item.
Output line: a
(a: 250 nM, b: 48.6 nM)

###

# target_or_test_system: Porcine gastric H+/K+-ATPase (Sus scrofa)
# Construct: The gastric vesicles were collected from interface on 0.25 M sucrose layer containing 7% Ficoll
# assay_info: Ion-leaky porcine gastric H+/K+-ATPase inhibition
# experimental_conditions: ion-leaky vesicles, 5 mM KCl, pH 6.4, 37° C., 30 minutes
recorded_metric: IC50 (µM)

- compound: "Cc1ccc2c(c1)OCCC2Nc1cc(C(=O)N(C)CCO)cn2c(C)c(C)nc12 (single isomer, unassigned) [Example 16-3]"
  result_unit: "µM"
  IC50: 0.18
- compound: "Cc1nc2c(NC3CCOc4c(F)cccc43)cc(C(=O)N(C)CCO)cn2c1C (single isomer, unassigned) [Example 15-3]"
  result_unit: "µM"
  IC50: 0.37
- compound: "Cc1nc2c(NC3CCOc4ccc(F)cc43)cc(C(=O)N(C)CCO)cn2c1C (single isomer, unassigned) [Example 13-3]"
  result_unit: "µM"
  IC50: 0.17
- compound: "Cc1nc2c(NC3CCOc4c(F)cccc43)cc(C(=O)N(C)C)cn2c1C (single isomer, unassigned) [Example 14-2]"
  result_unit: "µM"
  IC50: 0.12
- compound: "Cc1nc2c(NC3CCOc4cccc(F)c43)cc(C(=O)N(C)C)cn2c1C (single isomer, unassigned) [Example 10-3]"
  result_unit: "µM"
  IC50: 0.091

I: Cc1cccc2c1C(Nc1cc(C(=O)N(C)C)cn3c(C)c(C)nc13)CCO2 (racemic) [Example 17-1]
II: Cc1nc2c(NC3COCc4ccccc43)cc(C(=O)N(C)CCO)cn2c1C (single isomer, unassigned; (-)) [Example 4-2]
Input line: Given the listed records, identify the one among I and II with higher IC50. Returns: label corresponding to the selected item.
Output line: II
(II: 0.273 µM, I: 0.064 µM)

###

# target_or_test_system: Porcine gastric H+/K+-ATPase (Sus scrofa, UniProt P19156)
# Construct: The gastric vesicles were collected from interface on 0.25 M sucrose layer containing 7% Ficoll
# assay_info: Ion-leaky porcine gastric H+/K+-ATPase inhibition
# experimental_conditions: ion-leaky vesicles, 5 mM KCl, pH 6.4, 37° C., 30 minutes
pIC50: −log10 of the molar value.
recorded_metric: pIC50

Would you please look over these solved cases?
- compound: "Cc1cccc2c1C(Nc1cc(C(=O)N(C)CCO)cn3c(C)c(C)nc13)CCO2 (single isomer, unassigned; (+)) [Example 5-3]"
  pIC50: 7.03
- compound: "Cc1nc2c(NC3CCOc4cc(F)ccc43)cc(C(=O)N(C)CCO)cn2c1C (single isomer, unassigned) [Example 7-3]"
  pIC50: 7.25
- compound: "Cc1nc2c(NC3CCOc4ccc(F)cc43)cc(C(=O)N(C)C)cn2c1C (racemic) [Example 12-1]"
  pIC50: 7.68

A: Cc1nc2c(NC3CCOc4cccc(F)c43)cc(C(=O)N(C)C)cn2c1C (racemic) [Example 10-1]
B: Cc1nc2c(NC3CCOc4cc(F)ccc43)cc(C(=O)N(C)C)cn2c1C (racemic) [Example 6-1]
C: Cc1nc2c(NC3CCOc4cc(F)ccc43)cc(C(=O)N(C)CCO)cn2c1C (racemic) [Example 7-1]
D: Cc1nc2c(NC3CCOc4c(F)cccc43)cc(C(=O)N(C)CCO)cn2c1C (single isomer, unassigned) [Example 15-2]
Input line: Rank by pIC50 (largest to smallest). Response field: labels, in requested order.
Output line: B, C, A, D

###

# target_or_test_system: Porcine gastric H+/K+-ATPase (Sus scrofa, UniProt P19156)
# Construct: The gastric vesicles were collected from interface on 0.25 M sucrose layer containing 7% Ficoll
# assay_info: Ion-leaky porcine gastric H+/K+-ATPase inhibition
# experimental_conditions: ion-leaky vesicles, 5 mM KCl, pH 6.4, 37° C., 30 minutes
recorded_metric: IC50 (nM)

Would you please look over these solved cases?
- molecule: "Cc1nc2c(NC3CCOc4ccccc43)cc(C(=O)N(C)C)cn2c1C (single isomer, unassigned; (-)) [Example 1-2]"
  result_unit: "nM"
  IC50: 61.9
- molecule: "Cc1nc2c(NC3CCOc4cccc(F)c43)cc(C(=O)N(C)CCO)cn2c1C (single isomer, unassigned) [Example 11-3]"
  result_unit: "nM"
  IC50: 101

P: Cc1nc2c(NC3CCOc4ccccc43)cc(C(=O)N(C)CCO)cn2c1C (single isomer, unassigned; (-)) [Example 2-2]
Q: Cc1nc2c(NC3CCOc4c(F)cccc43)cc(C(=O)N(C)CCO)cn2c1C (racemic) [Example 15-1]
Input line: Would you kindly point out which of P and Q has the smaller IC50 figure? Returns: label corresponding to the selected item.
Output line: Q
(Q: 40.9 nM, P: 81.1 nM)

###

# target_or_test_system: Porcine gastric H+/K+-ATPase (Sus scrofa, UniProt P19156)
# Construct: The gastric vesicles were collected from interface on 0.25 M sucrose layer containing 7% Ficoll
# assay_info: Ion-leaky porcine gastric H+/K+-ATPase inhibition
# experimental_conditions: ion-leaky vesicles, 5 mM KCl, pH 6.4, 37° C., 30 minutes
recorded_metric: IC50 (nM)

P: Cc1nc2c(NC3CCOc4ccccc43)cc(C(=O)N(C)C)cn2c1C (racemic) [Example 1-1]
Q: Cc1nc2c(NC3CCOc4cccc(Cl)c43)cc(C(=O)N(C)C)cn2c1C (single isomer, unassigned) [Example 18-2]
Input line: Given the listed records, identify the one among P and Q with higher IC50. Returns: label corresponding to the selected item.
Output line: Q

a: Cc1nc2c(NC3COCc4ccccc43)cc(C(=O)N(C)CCO)cn2c1C (racemic) [Example 4-1]
b: Cc1nc2c(NC3CCOc4cc(F)ccc43)cc(C(=O)N(C)C)cn2c1C (single isomer, unassigned) [Example 6-3]
c: Cc1nc2c(NC3CCOc4ccc(F)cc43)cc(C(=O)N(C)C)cn2c1C (single isomer, unassigned) [Example 12-2]
Input line: Rank by IC50 (largest to smallest). Response field: labels, in requested order.
Output line: c, a, b
(c: 197 nM, a: 87.1 nM, b: 15.7 nM)

P: Cc1nc2c(NC3CCOc4cc(F)ccc43)cc(C(=O)N(C)C)cn2c1C (single isomer, unassigned) [Example 6-2]
Q: Cc1nc2c(NC3COCc4ccccc43)cc(C(=O)N(C)CCO)cn2c1C (single isomer, unassigned; (+)) [Example 4-3]
Input line: Given the listed records, identify the one among P and Q with higher IC50. Returns: label corresponding to the selected item.
Output line: Q

I: Cc1nc2c(NC3CCOc4cc(F)cc(F)c43)cc(C(=O)N(C)CCO)cn2c1C (single isomer, unassigned) [Example 9-3]
II: Cc1nc2c(NC3CCOc4cccc(Cl)c43)cc(C(=O)N(C)C)cn2c1C (single isomer, unassigned) [Example 18-3]
III: Cc1nc2c(NC3CCOc4ccc(F)cc43)cc(C(=O)N(C)C)cn2c1C (single isomer, unassigned) [Example 12-3]
IV: Cc1nc2c(NC3CCOc4cccc(Cl)c43)cc(C(=O)N(C)CCO)cn2c1C (single isomer, unassigned) [Example 19-2]
Input line: Form: Sort by [IC50] Order [ ascending ] Response field: labels, in requested order.
Output line: I, III, II, IV

1: Cc1nc2c(NC3CCOc4cccc(F)c43)cc(C(=O)N(C)CCO)cn2c1C (single isomer, unassigned) [Example 11-2]
2: Cc1nc2c(NC3CCOc4c(F)cccc43)cc(C(=O)N(C)C)cn2c1C (racemic) [Example 14-1]
Input line: Given the listed records, identify the one among 1 and 2 with higher IC50. Returns: label corresponding to the selected item.
Output line: 2

I: Cc1nc2c(NC3CCOc4cc(F)cc(F)c43)cc(C(=O)N(C)C)cn2c1C (single isomer, unassigned) [Example 8-3]
II: Cc1nc2c(NC3CCOc4cccc(Cl)c43)cc(C(=O)N(C)CCO)cn2c1C (racemic) [Example 19-1]
Input line: Given the listed records, identify the one among I and II with higher IC50. Returns: label corresponding to the selected item.
Output line: II
(II: 390 nM, I: 49 nM)

1: Cc1cccc2c1C(Nc1cc(C(=O)N(C)C)cn3c(C)c(C)nc13)CCO2 (single isomer, unassigned) [Example 17-2]
2: Cc1nc2c(NC3COCc4ccccc43)cc(C(=O)N(C)C)cn2c1C (single isomer, unassigned; (+)) [Example 3-3]
3: Cc1nc2c(NC3CCOc4cccc(Cl)c43)cc(C(=O)N(C)CCO)cn2c1C (single isomer, unassigned) [Example 19-3]
Input line: Form: Sort by [IC50] Order [ ascending ] Response field: labels, in requested order.
Output line: 1, 2, 3
(1: 43 nM, 2: 67.6 nM, 3: 500 nM)

P: Cc1nc2c(NC3CCOc4cccc(F)c43)cc(C(=O)N(C)C)cn2c1C (single isomer, unassigned) [Example 10-2]
Q: Cc1cccc2c1C(Nc1cc(C(=O)N(C)CCO)cn3c(C)c(C)nc13)CCO2 (single isomer, unassigned; (-)) [Example 5-2]
Input line: Given the listed records, identify the one among P and Q with higher IC50. Returns: label corresponding to the selected item.
Output line: Q
(Q: 86.2 nM, P: 51.1 nM)
